- MEASUREMENT NOTES: log P by HPLC on reversed-phase column (EEC directive 79/831 Annex V.A8)
- Type: physicochemical
- ASSAY CONTEXT: HPLC on reversed-phase column (footnote a)
Mark Condition met for log p under 2, Condition not met if at or over.

{"COMPOUND": "CC(=O)N(CC(=O)c1c([O-])n(Cc2cnc(Cl)s2)c2cccc[n+]12)C1CC1 [Example I-1-062]", "CATEGORY": "Condition met"}
{"COMPOUND": "CCOCC(=O)c1c([O-])n(Cc2ccc(Cl)nc2)c2c(C)ccc[n+]12 [Example I-1-182]", "CATEGORY": "Condition met"}

Enquiry: Is log p of O=C(COc1ccccc1)c1c([O-])n(Cc2ccc(Cl)nc2)c2cccc[n+]12 [Example I-1-007] strictly below 2?
Return: Condition not met

Enquiry: Is log p of O=C(CCl)c1c([O-])n(Cc2cnc(Cl)s2)c2ccc(Cl)c[n+]12 [Example I-1-108] strictly below 2?
Return: Condition not met

Enquiry: Is log p of CCNC(=O)c1c([O-])n(Cc2cnc(Cl)s2)c2cccc[n+]12 [Example I-1-134] strictly below 2?
Return: Condition met

Enquiry: Is log p of CCCOCC(=O)c1c([O-])n(Cc2cncnc2)c2cccc[n+]12 [Example I-1-061] strictly below 2?
Return: Condition met

Enquiry: Is log p of Cc1ccc[n+]2c(C(=O)NCC(C)C)c([O-])n(Cc3ccc(Cl)nc3)c12 [Example I-1-191] strictly below 2?
Return: Condition not met

Enquiry: Is log p of CNCC(=O)c1c([O-])n(Cc2cnc(Cl)s2)c2cccc[n+]12 [Example I-1-058] strictly below 2?
Return: Condition met

Enquiry: Is log p of O=C(CSc1ccccc1)c1c([O-])n(Cc2cnc(Cl)s2)c2cccc[n+]12 [Example I-1-025] strictly below 2?
Return: Condition not met

Enquiry: Is log p of Cc1ccc[n+]2c(C(=O)Cn3ccc(Cl)n3)c([O-])n(Cc3cnc(Cl)s3)c12 [Example I-1-093] strictly below 2?
Return: Condition not met

Enquiry: Is log p of COC(=O)c1c([O-])n(Cc2ccc(Cl)nc2)c2cccc[n+]12 [Example I-1-101] strictly below 2?
Return: Condition met

Enquiry: Is log p of CCOCC(=O)c1c([O-])n(Cc2cnc(Cl)c(Cl)c2)c2cccc[n+]12 [Example I-1-192] strictly below 2?
Return: Condition met

Enquiry: Is log p of COC(=O)c1c([O-])n(Cc2ccc(Cl)nc2)c2c(OC(F)(F)F)ccc[n+]12 [Example I-1-189] strictly below 2?
Return: Condition met

Enquiry: Is log p of CCOCC(=O)c1c([O-])n(Cc2cnc(Cl)s2)c2ccc(F)c[n+]12 [Example I-1-112] strictly below 2?
Return: Condition met
